- Experimental System: UniProt:P12822
- Sequence (whole entry): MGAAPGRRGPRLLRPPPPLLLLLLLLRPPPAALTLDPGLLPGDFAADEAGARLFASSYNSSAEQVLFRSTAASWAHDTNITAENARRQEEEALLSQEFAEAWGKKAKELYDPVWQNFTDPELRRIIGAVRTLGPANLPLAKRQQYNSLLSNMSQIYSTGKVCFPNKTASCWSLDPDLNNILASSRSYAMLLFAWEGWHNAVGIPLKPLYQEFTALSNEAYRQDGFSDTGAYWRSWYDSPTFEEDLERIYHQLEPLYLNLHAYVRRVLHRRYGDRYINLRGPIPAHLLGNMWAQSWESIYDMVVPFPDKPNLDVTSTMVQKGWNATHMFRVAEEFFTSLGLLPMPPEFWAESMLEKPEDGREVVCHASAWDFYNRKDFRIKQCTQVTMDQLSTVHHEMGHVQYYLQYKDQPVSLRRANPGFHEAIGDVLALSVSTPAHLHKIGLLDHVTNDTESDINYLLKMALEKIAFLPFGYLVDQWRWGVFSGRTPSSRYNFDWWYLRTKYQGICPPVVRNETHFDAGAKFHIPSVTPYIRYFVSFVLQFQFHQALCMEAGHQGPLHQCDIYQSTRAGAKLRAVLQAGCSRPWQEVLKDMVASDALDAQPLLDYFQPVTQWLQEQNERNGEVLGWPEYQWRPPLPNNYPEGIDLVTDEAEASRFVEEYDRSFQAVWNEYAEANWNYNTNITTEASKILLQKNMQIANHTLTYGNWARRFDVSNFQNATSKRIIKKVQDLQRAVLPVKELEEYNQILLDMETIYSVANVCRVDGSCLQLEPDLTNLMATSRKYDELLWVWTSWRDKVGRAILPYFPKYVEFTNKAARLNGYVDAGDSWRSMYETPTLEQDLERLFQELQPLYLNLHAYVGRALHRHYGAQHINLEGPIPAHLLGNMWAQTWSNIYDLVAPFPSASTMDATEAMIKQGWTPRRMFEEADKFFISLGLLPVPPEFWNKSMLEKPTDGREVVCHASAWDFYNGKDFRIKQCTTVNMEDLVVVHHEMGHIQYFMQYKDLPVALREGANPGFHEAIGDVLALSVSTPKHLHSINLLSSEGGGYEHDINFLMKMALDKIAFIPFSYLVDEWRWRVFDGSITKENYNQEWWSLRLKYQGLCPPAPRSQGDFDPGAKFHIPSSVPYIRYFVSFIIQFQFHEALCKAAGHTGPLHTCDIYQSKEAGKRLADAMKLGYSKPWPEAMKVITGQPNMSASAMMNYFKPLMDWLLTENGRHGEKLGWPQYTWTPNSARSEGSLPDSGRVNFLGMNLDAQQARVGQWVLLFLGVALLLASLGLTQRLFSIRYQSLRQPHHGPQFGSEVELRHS
- Test Name: In vitro stability of compound (50 uM) to inhibit NAcSDKP hydrolysis by rabbit lung Angiotensin I converting enzyme after 30 minutes incubation
Peptide text beside a SMILES is read from it.
Measurement Label: Residual peptide (%)

CC(=O)N[C@@H](CO)C(=O)N[C@H](CN[C@@H](CCCCN)C(=O)N1CCC[C@H]1C(=O)O)CC(=O)O	41.7
CC(=O)N[C@@H](CO)CN[C@@H](CC(=O)O)C(=O)N[C@@H](CCCCN)C(=O)N1CCC[C@H]1C(=O)O	46.7
CC(=O)N[C@@H](CO)C(=O)N[C@@H](CC(=O)O)C(=O)N[C@@H](CCCCN)CN1CCC[C@H]1C(=O)O	50.3
CC(=O)N[C@@H](CO)C(=O)N[C@@H](CC(=O)O)C(=O)N[C@@H](CCCCN)C(=O)N1CCC[C@H]1C(N)=O (Ac-SDKP-NH2)	49.7

###

- Experimental System: Angiotensin-converting enzyme (Oryctolagus cuniculus)
- Test Name: In vitro stability of compound toward enzymatic degradation by rabbit lung Angiotensin I converting enzyme after 24 hr incubation
Peptide text beside a SMILES is read from it. * marks the point of attachment. Pyrrolidide = C1CCN(*)C1
Measurement Label: Residual peptide (%)

Observe how each entry below is paired with its result.
CC(=O)N[C@@H](CO)CN[C@@H](CC(=O)O)C(=O)N[C@@H](CCCCN)C(=O)N1CCC[C@H]1C(=O)O	97.6
CC(=O)N[C@@H](CO)C(=O)N[C@@H](CC(=O)O)C(=O)N[C@@H](CCCCN)C(=O)N1CCC[C@H]1C(N)=O (Ac-SDKP-NH2)	96.7
CC(=O)N[C@@H](CO)C(=O)N[C@@H](CC(=O)O)C(=O)N[C@@H](CCCCN)CN1CCC[C@H]1C(=O)O	99.4

I: CC(=O)N[C@@H](CO)C(=O)N[C@H](CN[C@@H](CCCCN)C(=O)N1CCC[C@H]1C(=O)O)CC(=O)O
II: CC(=O)N[C@@H](CO)C(=O)N[C@@H](CC(=O)O)C(=O)N[C@@H](CCCCN)C(=O)N1CCCC1 (Ac-Ser-Asp-Lys-Pyrrolidide)
Between the two listed entries I and II , which has its Residual peptide at the higher number? Returns: label corresponding to the selected item.
I
